- System: EGFP, 293-EGFP cells
- EXPERIMENT_DESCRIPTION: plate-reader chemical library screen, GFP signal in control EGFP cells
- Format: cell-based, human
- SETTINGS: GFP signal; 50 mM RNAi-E, 30 mM each additional drug
Counter-ions that a name gives are not always drawn.
RECORDED_METRIC: EGFP, 293-EGFP cells With RNAi-E

[[record]]
molecule = "Cc1ccc(/C(=C\\CN2CCCC2)c2ccccn2)cc1 [Triprolidine Hydrochloride]"
study_system = "EGFP, 293-EGFP cells"
recorded_metric = "EGFP, 293-EGFP cells With RNAi-E"
value_reported = 202110668

[[record]]
molecule = "CC(=O)N(O)CCCCCNC(=O)CCC(=O)N(O)CCCCCNC(=O)CCC(=O)N(O)CCCCCN [Deferoxamine Mesylate]"
study_system = "EGFP, 293-EGFP cells"
recorded_metric = "EGFP, 293-EGFP cells With RNAi-E"
value_reported = 194519648

[[record]]
molecule = "Cc1cc(=O)c2c(O)c3c(cc2o1)OCC(C)CC3 (stereo not shown) [Dihydroptaeroxylin]"
study_system = "EGFP, 293-EGFP cells"
recorded_metric = "EGFP, 293-EGFP cells With RNAi-E"
value_reported = 194786588

[[record]]
molecule = "CC(=O)O[C@H]1C[C@@]2(C)[C@@H](C[C@@H](O)[C@H]3[C@@]4(C)CC[C@@H](O)[C@@H](C)[C@@H]4CC[C@@]32C)/C1=C(\\CCC=C(C)C)C(=O)O"
study_system = "EGFP, 293-EGFP cells"
recorded_metric = "EGFP, 293-EGFP cells With RNAi-E"
value_reported = 192354884

[[record]]
molecule = "O=C(O)CCC(=O)c1ccc(-c2ccccc2)cc1"
study_system = "EGFP, 293-EGFP cells"
recorded_metric = "EGFP, 293-EGFP cells With RNAi-E"
value_reported = 191729340

[[record]]
molecule = "CC(=O)O[C@@H]1C[C@H]2C(C)(C)[C@@H](O)CC[C@]2(C)[C@H]2CC[C@]3(C)C(=CC(=O)O[C@H]3c3ccoc3)[C@@]21C [3-beta-Hyroxydeoxo-dihydrodeoxygedunin, 3-beta-hydroxydeoxodihydrodeoxygedunin]"
study_system = "EGFP, 293-EGFP cells"
recorded_metric = "EGFP, 293-EGFP cells With RNAi-E"
value_reported = 186574276

[[record]]
molecule = "Nc1nc2[nH]cnc2c(=S)[nH]1"
study_system = "EGFP, 293-EGFP cells"
recorded_metric = "EGFP, 293-EGFP cells With RNAi-E"
value_reported = 193528220


====

This listing pairs compounds with measured EGFP, 293-EGFP cells With RNAi-E.
- Test system: EGFP, 293-EGFP cells
- EXPERIMENT_DESCRIPTION: plate-reader chemical library screen, GFP signal in control EGFP cells
- Format: cell-based, human
- SETTINGS: GFP signal; 50 mM RNAi-E, 30 mM each additional drug
Structures can show the parent of a compound that is named as a salt.
RECORDED_METRIC: EGFP, 293-EGFP cells With RNAi-E

[[record]]
compound = "O=C1CC[C@]23/C=C/C(=O)NCCCCNCCCNC(=O)/C=C/c4ccc(c2c4)O[C@@H]3C1"
recorded_metric = "EGFP, 293-EGFP cells With RNAi-E"
value_reported = 130354040

[[record]]
compound = "CC(C)C[C@H]1C(=O)N2CCC[C@H]2[C@]2(O)O[C@](NC(=O)[C@@H]3C=C4c5cccc6[nH]c(Br)c(c56)C[C@H]4N(C)C3)(C(C)C)C(=O)N12 [Bromocriptine Mesylate]"
recorded_metric = "EGFP, 293-EGFP cells With RNAi-E"
value_reported = 136409552

[[record]]
compound = "C=C1C2CCC3(C)C(c4ccoc4)OC(=O)CC13OC1CC(O)C(C)(C)C(CC(=O)OC)C12C (stereo not drawn)"
recorded_metric = "EGFP, 293-EGFP cells With RNAi-E"
value_reported = 118263232

